organism: Homo sapiens; assay: Compound was tested for the rate of formation in human liver microsomes 112; format: functional
Property Label: Rate of formation (pM min-1 (mg of protein)-1)
Enter the number alone.

Query :: Need Rate of formation (pM min-1 (mg of protein)-1), item C[C@@H](O)c1cccc2cc([C@@H](O)CNC(C)(C)C)oc12
Result :: 48.9

Query :: Need Rate of formation (pM min-1 (mg of protein)-1), item C[C@H](O)c1cccc2cc([C@@H](O)CNC(C)(C)C)oc12
Result :: 32

Query :: Need Rate of formation (pM min-1 (mg of protein)-1), item C[C@@H](O)c1cccc2cc([C@H](O)CNC(C)(C)C)oc12
Result :: 54.5

Query :: Need Rate of formation (pM min-1 (mg of protein)-1), item C[C@H](O)c1cccc2cc([C@H](O)CNC(C)(C)C)oc12
Result :: 136

* * *

species on record: Rattus norvegicus; assay: Compound was tested for the rate of formation in rat liver microsomes; type: functional
Property Label: Rate of formation (pM min-1 (mg of protein)-1)
Enter the number alone.

Query :: Need Rate of formation (pM min-1 (mg of protein)-1), item C[C@@H](O)c1cccc2cc([C@H](O)CNC(C)(C)C)oc12
Result :: 2270

Query :: Need Rate of formation (pM min-1 (mg of protein)-1), item C[C@@H](O)c1cccc2cc([C@@H](O)CNC(C)(C)C)oc12
Result :: 741

Query :: Need Rate of formation (pM min-1 (mg of protein)-1), item C[C@H](O)c1cccc2cc([C@H](O)CNC(C)(C)C)oc12
Result :: 500

Query :: Need Rate of formation (pM min-1 (mg of protein)-1), item C[C@H](O)c1cccc2cc([C@@H](O)CNC(C)(C)C)oc12
Result :: 96.1

* * *

Hi there, I'd appreciate the recorded Rate of formation (pM min-1 (mg of protein)-1) for every entry that follows.
species on record: Homo sapiens; assay: Compound was tested for the rate of formation in human liver microsomes 108; type: functional
Enter the number alone.

Query :: Need Rate of formation (pM min-1 (mg of protein)-1), item C[C@H](O)c1cccc2cc([C@@H](O)CNC(C)(C)C)oc12
Result :: 101

Query :: Need Rate of formation (pM min-1 (mg of protein)-1), item C[C@@H](O)c1cccc2cc([C@H](O)CNC(C)(C)C)oc12
Result :: 74.5

Query :: Need Rate of formation (pM min-1 (mg of protein)-1), item C[C@@H](O)c1cccc2cc([C@@H](O)CNC(C)(C)C)oc12
Result :: 86.5

Query :: Need Rate of formation (pM min-1 (mg of protein)-1), item C[C@H](O)c1cccc2cc([C@H](O)CNC(C)(C)C)oc12
Result :: 363

* * *

Hi there, I'd appreciate the recorded Rate of formation (pM min-1 (mg of protein)-1) for every entry that follows.
species: Homo sapiens; assay: Compound was tested for the rate of formation in human liver microsomes 114; type: functional
Enter the number alone.

Query :: Need Rate of formation (pM min-1 (mg of protein)-1), item C[C@H](O)c1cccc2cc([C@@H](O)CNC(C)(C)C)oc12
Result :: 58.8

Query :: Need Rate of formation (pM min-1 (mg of protein)-1), item C[C@@H](O)c1cccc2cc([C@H](O)CNC(C)(C)C)oc12
Result :: 61.7

Query :: Need Rate of formation (pM min-1 (mg of protein)-1), item C[C@H](O)c1cccc2cc([C@H](O)CNC(C)(C)C)oc12
Result :: 211

Query :: Need Rate of formation (pM min-1 (mg of protein)-1), item C[C@@H](O)c1cccc2cc([C@@H](O)CNC(C)(C)C)oc12
Result :: 62.1
